biological target: NADPH oxidase 2 (Homo sapiens); test: NOX2-dependent H2O2 signal modulators, primary screen, NOX inhibitor project, cell-based, HEK293-NOX2, PMA-stimulated, Amplex Red fluorescence (AID 1159); settings: 45 min, higher = more signal, called active from +8 up or from −8 down; also: test concentration not given here
Known z-score of a selection of compounds
Would you mind answering with just the numeric figure?

compound	z-score
C=CCN1C(=O)[C@]2(O[C@H](CCn3cc(CCO)nn3)[C@@H]([Si](C)(C)c3ccc(OC)cc3)[C@@H]2C)c2cc(NC(=O)c3ccc(OC)cc3)ccc21	0.891

Okay, now this compound:
For this compound ( `C=C(COC)/C(=C/C[C@@H](OC(=O)c1ccncc1)c1ccc(OCCO)cc1)c1cc(C(=O)OC)ccc1OC` ), measured z-score is 1.98
